# TEST_TARGET: human D2 (long) expressed in HEK cells (Homo sapiens, UniProt P14416)
# Sequence (P14416 whole entry): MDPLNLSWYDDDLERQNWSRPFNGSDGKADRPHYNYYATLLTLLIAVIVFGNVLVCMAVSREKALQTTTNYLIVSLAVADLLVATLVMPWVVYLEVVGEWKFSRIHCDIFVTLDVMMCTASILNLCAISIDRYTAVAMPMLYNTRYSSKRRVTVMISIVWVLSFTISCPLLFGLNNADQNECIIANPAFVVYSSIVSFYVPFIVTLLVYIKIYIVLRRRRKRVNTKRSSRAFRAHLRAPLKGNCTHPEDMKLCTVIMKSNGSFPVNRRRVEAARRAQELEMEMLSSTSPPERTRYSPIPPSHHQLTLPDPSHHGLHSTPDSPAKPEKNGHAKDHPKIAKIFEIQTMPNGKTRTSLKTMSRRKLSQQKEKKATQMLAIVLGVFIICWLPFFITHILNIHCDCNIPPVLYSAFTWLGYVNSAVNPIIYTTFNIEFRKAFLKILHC
# ASSAY_OVERVIEW: Radioligand binding assay with [125I]IABN, D2R
QUANTITY_KIND: pKi
# reply with the number alone; pKi is -log10 of concentration in mol/L

Fill blank: measured pKi of the compound "C=CCN1C[C@@H](OCCCN)C[C@H]1CNC(=O)c1cc(CCCF)cc(OC)c1OC" is ____.
7.77
